molecular target: T1, human LAP-TGFB1 Fc fusion (human); experiment: SPR pH 7.4, antigen-Fc captured, Fab analyte
T1 construct: also called human LAP-TGFβ1-Fc; human LAP-TGFβ-Fc isoform 1
T1 sequence (chain, as listed by the source limits assumed): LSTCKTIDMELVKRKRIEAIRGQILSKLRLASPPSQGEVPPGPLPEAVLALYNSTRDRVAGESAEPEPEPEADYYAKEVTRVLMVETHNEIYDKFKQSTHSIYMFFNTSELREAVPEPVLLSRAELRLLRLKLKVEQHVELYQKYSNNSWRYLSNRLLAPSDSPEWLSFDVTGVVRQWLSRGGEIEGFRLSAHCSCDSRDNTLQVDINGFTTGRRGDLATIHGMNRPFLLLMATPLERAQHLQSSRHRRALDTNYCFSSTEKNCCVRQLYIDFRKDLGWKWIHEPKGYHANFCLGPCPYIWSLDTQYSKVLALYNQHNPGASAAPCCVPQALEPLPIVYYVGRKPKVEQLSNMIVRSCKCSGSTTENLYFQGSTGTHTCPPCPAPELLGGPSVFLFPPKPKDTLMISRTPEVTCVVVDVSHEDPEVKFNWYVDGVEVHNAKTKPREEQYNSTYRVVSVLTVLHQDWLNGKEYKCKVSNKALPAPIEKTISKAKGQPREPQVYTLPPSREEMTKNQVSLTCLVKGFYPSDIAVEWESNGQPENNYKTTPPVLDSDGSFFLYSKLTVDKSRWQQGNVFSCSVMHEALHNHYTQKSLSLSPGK
measure: Kd (pM)
The answer is to be given in pM; state only the numeric part.

In the examples that follow, each entry is paired with its recorded Kd.
| binder | unit-of-measurement | value-measured |
| --- | --- | --- |
| 57BLH (Fab, V domains shown, also called 09BLM Fab) VH: EVQLVQSGAEVKKPGASVKVSCKASGYTFTSYDMHWVRQAPGQGLEWMGRIDPISGGIKYAQKFQGRATLTVDTSTSTAYMELSRLRSDDTAVYYCARWDYGGYFDVWGQGTLVTVSS VL: DIQMTQSPSSLSASVGDRVTITCRASQDIFNYLNWYQQKPGKAVKLLIYYTSHLETGVPSRFSGSGSGTDYTLTISSLQPEDFATYFCQQGDTLPWTFGQGTKLEIK | pM | 81 |
| 61BLH (Fab, V domains shown, also called 13BLM Fab) VH: EVQLVQSGAEVKKPGASVKVSCKASGYTFTSYDMHWVRQAPGQGLEWMGRIDPQTGDIKYAQKFQGRATLTVDTSTSTAYMELSRLRSDDTAVYYCARWDYGGQFDVWGQGTLVTVSS VL: DIQMTQSPSSLSASVGDRVTITCRASQDIYNYLNWYQQKPGKAVKLLIYYTSGLETGVPSRFSGSGSGTDYTLTISSLQPEDFATYFCQQGDTLPWTFGQGTKLEIK | pM | 13 |
| 65BLH (Fab, V domains shown, also called 17BLM Fab) VH: EVQLVQSGAEVKKPGASVKVSCKASGYTFTSYDMHWVRQAPGQGLEWMGRIDPQSGGIKYAQKFQGRATLTVDTSTSTAYMELSRLRSDDTAVYYCARWDYGGYFDVWGQGTLVTVSS VL: DIQMTQSPSSLSASVGDRVTITCRASQDIYNYLNWYQQKPGKAVKLLIYYTSRLETGVPSRFSGSGSGTDYTLTISSLQPEDFATYFCQQGDELPWTFGQGTKLEIK | pM | 146 |
| 62BLH (Fab, V domains shown, also called 14BLM Fab) VH: EVQLVQSGAEVKKPGASVKVSCKASGYTFTSYDTHWVRQAPGQGLEWMGRIDPQSGGIKYAQKFQGRATLTVDTSTSTAYMELSRLRSDDTAVYYCARWDYGGYFDVWGQGTLVTVSS VL: DIQMTQSPSSLSASVGDRVTITCRASQDIYNYLNWYQQKPGKAVKLLIYYTSYLETGVPSRFSGSGSGTDYTLTISSLQPEDFATYFCQQGDTLPWTFGQGTKLEIK | pM | 246 |
| 64BLH (Fab, V domains shown, also called 16BLM Fab) VH: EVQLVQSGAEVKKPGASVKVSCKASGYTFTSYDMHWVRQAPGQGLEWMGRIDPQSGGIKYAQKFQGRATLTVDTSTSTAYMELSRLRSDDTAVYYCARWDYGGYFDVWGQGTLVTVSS VL: DIQMTQSPSSLSASVGDRVTITCRASQDIYNYLNWYQQKPGKAVKLLIYYTSVLETGVPSRFSGSGSGTDYTLTISSLQPEDFATYFCQQGDTLPWTFGQGTKLEIK | pM | 77 |

Name the recorded Kd of the item 67BLH (Fab, V domains shown, also called 19BLM Fab) VH: EVQLVQSGAEVKKPGASVKVSCKASGYTFTSYDMHWVRQAPGQGLEWMGRIDPQSGGIKYAQKFQGRATLTVDTSTSTAYMELSRLRSDDTAVYYCARYDHGGYFDVWGQGTLVTVSS VL: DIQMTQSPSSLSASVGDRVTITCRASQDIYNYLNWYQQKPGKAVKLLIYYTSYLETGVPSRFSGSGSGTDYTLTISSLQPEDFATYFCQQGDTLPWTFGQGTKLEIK in your answer.
961

Name the recorded Kd of the item 54BLH (Fab, V domains shown, also called 06BLM Fab) VH: EVQLVQSGAEVKKPGASVKVSCKASGYTFTSYDMHWVRQAPGQGLEWMGRIDPQSGGIRYAQKFQGRATLTVDTSTSTAYMELSRLRSDDTAVYYCARWDYGGQFDVWGQGTLVTVSS VL: DIQMTQSPSSLSASVGDRVTITCRASQDIYNYLNWYQQKPGKAVKLLIYYTSILETGVPSRFSGSGSGTDYTLTISSLQPEDFATYFCQQGDTLPWTFGQGTKLEIK in your answer.
4

Name the recorded Kd of the item 59BLH (Fab, V domains shown, also called 11BLM Fab) VH: EVQLVQSGAEVKKPGASVKVSCKASGYTFTSYDMHWVRQAPGQGLEWMGRIDPQSGGIRYAQKFQGRATLTVDTSTSTAYMELSRLRSDDTAVYYCARWDYGGYFDVWGQGTLVTVSS VL: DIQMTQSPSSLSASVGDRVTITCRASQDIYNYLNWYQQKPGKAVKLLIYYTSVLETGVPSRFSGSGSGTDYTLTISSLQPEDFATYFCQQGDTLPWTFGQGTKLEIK in your answer.
66

Name the recorded Kd of the item 20E6 Fab (80BGJ/85BIT) (Fab, V domains shown, also called 20E6 (80BGJ); 20E6 (85BIT)) VH: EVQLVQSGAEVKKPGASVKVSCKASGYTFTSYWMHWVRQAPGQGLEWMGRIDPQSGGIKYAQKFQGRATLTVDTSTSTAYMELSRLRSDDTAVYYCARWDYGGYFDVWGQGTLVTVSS VL: DIQMTQSPSSLSASVGDRVTITCRASQDITNYLNWYQQKPGKAVKLLIYYTSRLHSGVPSRFSGSGSGTDYTLTISSLQPEDFATYFCQQGDTLPWTFGQGTKLEIKR in your answer.
58500

Name the recorded Kd of the item 55BLH (Fab, V domains shown, also called 07BLM Fab) VH: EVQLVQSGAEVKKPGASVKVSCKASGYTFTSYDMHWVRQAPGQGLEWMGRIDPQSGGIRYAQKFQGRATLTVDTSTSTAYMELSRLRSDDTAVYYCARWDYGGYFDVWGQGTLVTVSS VL: DIQMTQSPSSLSASVGDRVTITCRASQDIYSYLNWYQQKPGKAVKLLIYYTSNLETGVPSRFSGSGSGTDYTLTISSLQPEDFATYFCQQGDTLPWTFGQGTKLEIK in your answer.
59
